Provenance of the data: ChEMBL document CHEMBL5154678

- Tested on: Erythrocyte
- assay.info: Hemolytic activity against human RBC assessed as concentration required to cause 10% hemolysis
- Format: toxicity, cell-based
property.label: MHC (µg/mL)
Give bare numbers, in µg/mL.

MHC for CC(C)[C@H](N)C(=O)N[C@@H](CCCCN)C(=O)N[C@@H](CCCNC(=N)N)C(=O)N[C@@H](Cc1ccccc1)C(=O)N[C@@H](CCCCN)C(=O)N[C@H]1CCCCNCc2ccccc2CNCCCC[C@@H](C(=O)N[C@@H](Cc2ccccc2)C(=O)N[C@@H](CCCCN)C(=O)N[C@@H](CCCCN)C(=O)N[C@@H](Cc2ccccc2)C(=O)N[C@H](C(N)=O)C(C)C)NC(=O)[C@H](CCCNC(=N)N)NC(=O)[C@H](Cc2ccccc2)NC(=O)[C@H](Cc2ccccc2)NC1=O is 32
